Value source: patent US9200046B2

target: Nrf2-Keap1 complex (Homo sapiens); assay: cell-based; format: cell-based; details: 3 h, read-out: Activation 100 nL
Sequence (Q14145 whole entry, one chain of several): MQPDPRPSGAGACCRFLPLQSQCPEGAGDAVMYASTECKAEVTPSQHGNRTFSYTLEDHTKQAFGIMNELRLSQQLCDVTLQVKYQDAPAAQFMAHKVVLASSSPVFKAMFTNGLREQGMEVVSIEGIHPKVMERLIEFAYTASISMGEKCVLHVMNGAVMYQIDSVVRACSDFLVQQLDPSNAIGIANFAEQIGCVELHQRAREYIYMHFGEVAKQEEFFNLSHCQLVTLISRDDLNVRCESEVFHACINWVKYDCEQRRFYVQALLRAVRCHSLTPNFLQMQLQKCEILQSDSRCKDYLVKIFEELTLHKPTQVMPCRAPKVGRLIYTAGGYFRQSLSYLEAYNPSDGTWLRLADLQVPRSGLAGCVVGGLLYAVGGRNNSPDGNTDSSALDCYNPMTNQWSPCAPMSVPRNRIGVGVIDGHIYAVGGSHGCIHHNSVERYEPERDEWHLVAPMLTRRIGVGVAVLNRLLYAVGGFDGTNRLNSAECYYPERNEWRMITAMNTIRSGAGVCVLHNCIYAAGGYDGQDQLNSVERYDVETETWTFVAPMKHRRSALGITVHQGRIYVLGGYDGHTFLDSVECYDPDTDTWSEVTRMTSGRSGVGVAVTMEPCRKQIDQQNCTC
Outcome label depends on activation at 16 µM relative to 50%: at/above gives met, below gives not met.

// known answers, use as guide
- C[C@]12CCC(=O)C=C1C=C[C@@H]1[C@@H]2CC[C@@]2(C)[C@H]1CC[C@@]21CCC(=O)O1 [CANRENONE, reference compound]: not met
- CNc1ccccc1C(=O)N1CCc2c([nH]c3ccccc23)C1=O [RHETSININE]: met
- COc1cc(O)c(C(=O)/C=C/c2ccccc2)c(OC)c1 [FLAVOKAWAINB]: met

Request: Hello, I need to know if COC(=O)Nc1nc2ccc(Sc3ccccc3)cc2[nH]1 [FENBENDAZOLE, reference compound] has measured activation at 16 µM not below 50%. Thanks!
Result: met

Request: Hello, I need to know if COc1c(O)cc2c(-c3ccccc3)cc(=O)oc2c1OC [KUHLMANNIN] has measured activation at 16 µM not below 50%. Thanks!
Result: not met

Request: Hello, I need to know if O=C(/C=C/c1ccc(O)cc1)c1ccccc1O [2′,4-DIHYDROXYCHALCONE] has measured activation at 16 µM not below 50%. Thanks!
Result: met

Request: Hello, I need to know if COc1cc([C@@H]2c3cc4c(c(O)c3C[C@H]3COC(=O)[C@@H]32)OCO4)cc(OC)c1OC [beta-PELTATIN] has measured activation at 16 µM not below 50%. Thanks!
Result: met

Request: Hello, I need to know if Cc1cccc2c3c(ccc12)C1=C(C(=O)C3=O)[C@@H](C)CO1 [DIHYDROTANSHINONEI] has measured activation at 16 µM not below 50%. Thanks!
Result: met
